B1: HDV Ribozyme (parent)
chain: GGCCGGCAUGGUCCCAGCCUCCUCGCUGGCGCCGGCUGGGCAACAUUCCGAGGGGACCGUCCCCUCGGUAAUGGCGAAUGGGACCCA

Variants of: B1
PROTOCOL TEXT: self-cleavage, relative activity (ratio to wild type); higher = more cleavage; co-transcriptional
PROPERTY: self-cleavage
Response field accepts a number only; no unit should be typed.

Past entries and their recorded results:
- CHANGES: "G31C C48G"
  self-cleavage: 0.227
- CHANGES: "G25A C44U"
  self-cleavage: 0.107
- CHANGES: "G25C G28U"
  self-cleavage: 0.119
- CHANGES: "C3G G10U"
  self-cleavage: 0.193
- CHANGES: "G5A C18G"
  self-cleavage: 0

Moving on to the next variant.
Task item: What does the data say about its self-cleavage? Entry: U65G U69C
Reply: 0.877
